The measured values listed here are drawn from ChEMBL document CHEMBL1127276.

Assay: In vitro half life at 1.5 -5.6ug/mL, 37 degree C in human plasma
Assay type: ADME, cell-free

record_smiles	half-life / h
O=C(O)CCNC(=O)[C@H](Cc1ccc(-c2ccccc2)cc1)NCP(=O)(Oc1ccccc1)Oc1ccccc1	1.4
O=C(O)CCNC(=O)[C@H](Cc1ccc(-c2ccccc2)cc1)NCP(=O)(O)Oc1ccccc1	4.2

* * *

Assay: In vitro half life at 1.5 -5.6ug/mL, 37 degree C in monkey plasma
Assay type: ADME, cell-free
Conditions: cercopithecidae
half-life reference

record_smiles	half-life
O=C(O)CCNC(=O)[C@H](Cc1ccc(-c2ccccc2)cc1)NCP(=O)(Oc1ccccc1)Oc1ccccc1	4.7 h
O=C(O)CCNC(=O)[C@H](Cc1ccc(-c2ccccc2)cc1)NCP(=O)(O)Oc1ccccc1	> 7.8 h

* * *

Assay: Ionization constant in basic (NH2+) medium
Type: physicochemical
Conditions: read-out: pKa4
Entries and their measured pKa follow.

record_smiles	pKa
O=C(O)CCNC(=O)[C@H](Cc1ccc(-c2ccccc2)cc1)NCP(=O)(O)O	10
O=C(O)CCNC(=O)[C@H](Cc1ccc(-c2ccccc2)cc1)NCP(=O)(O)Oc1ccccc1	10

* * *

Readings of half-life for the listed compounds
Experiment: Half life at a pH 8.5 in Na2HPO4/NaH2PO4 medium
Assay type: ADME

record_smiles	half-life
O=C(O)CCNC(=O)[C@H](Cc1ccc(-c2ccccc2)cc1)NCP(=O)(O)Oc1ccccc1	> 6 h
O=C(O)CCNC(=O)[C@H](Cc1ccc(-c2ccccc2)cc1)NCP(=O)(Oc1ccccc1)Oc1ccccc1	> 96 h

* * *

Listed here: items and their measured half-life.
Experiment: Half life at a pH 8.78 in KHCO3 medium
Assay type: ADME
readout_kind: half-life (h)

record_smiles	readout_kind	measured
O=C(O)CCNC(=O)[C@H](Cc1ccc(-c2ccccc2)cc1)NCP(=O)(Oc1ccccc1)Oc1ccccc1	half-life	8.19
O=C(O)CCNC(=O)[C@H](Cc1ccc(-c2ccccc2)cc1)NCP(=O)(O)Oc1ccccc1	half-life	0.51

* * *

Assay: Half life at a pH 12.01 in […] medium
Format: ADME
Entries annotated with measured half-life

record_smiles	half-life
O=C(O)CCNC(=O)[C@H](Cc1ccc(-c2ccccc2)cc1)NCP(=O)(Oc1ccccc1)Oc1ccccc1	< 10 min
O=C(O)CCNC(=O)[C@H](Cc1ccc(-c2ccccc2)cc1)NCP(=O)(O)Oc1ccccc1	> 6 min

* * *

Assay: Ionization constant in slightly acidic(POH) medium
Format: physicochemical
Details: read-out: pKa3

record_smiles	pKa
O=C(O)CCNC(=O)[C@H](Cc1ccc(-c2ccccc2)cc1)NCP(=O)(O)O	7.8
